- assayNotes: activity coefficient (dimensionless); of the first substance listed, at infinite dilution; xn = mol fraction of the nth substance listed
- conditionContext: 313.15 K; Liquid; Chromatography; x1 = 0
quantityKind: activity coefficient

Illustrative cases are given below, each with its answer.
>  <compound>
CCCCCO [pentan-1-ol] + CCC[n+]1ccn(C)c1C.F[B-](F)(F)F

>  <activity coefficient>
6.2

$$$$
>  <compound>
CC#N [acetonitrile] + CCC[n+]1ccn(C)c1C.F[B-](F)(F)F

>  <activity coefficient>
1.39

$$$$
>  <compound>
CCO [ethanol] + CCC[n+]1ccn(C)c1C.F[B-](F)(F)F

>  <activity coefficient>
1.68

$$$$
>  <compound>
ClC(Cl)(Cl)Cl [tetrachloromethane] + CCC[n+]1ccn(C)c1C.F[B-](F)(F)F

>  <activity coefficient>
8.63

$$$$

1: CC(C)CCO [3-methylbutan-1-ol] + CCC[n+]1ccn(C)c1C.F[B-](F)(F)F
2: CCCO [propan-1-ol] + CCC[n+]1ccn(C)c1C.F[B-](F)(F)F
3: ClC(Cl)Cl [trichloromethane] + CCC[n+]1ccn(C)c1C.F[B-](F)(F)F
Query: Sort by activity coefficient, descending. Record the ranking as a list of labels in the requested order.
Result: 1, 2, 3
